Numbers sourced from patent US12398154B2.

assayed.system: KRas G12D (Homo sapiens, UniProt P01116, G12D);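 also: TR-FRET displacement binding assay on KRas, read after a one-hour incubation at room temperature, IC50 fitted from percent-of-control values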
Sequence (P01116 1-169 isoform P01116-2 G12D): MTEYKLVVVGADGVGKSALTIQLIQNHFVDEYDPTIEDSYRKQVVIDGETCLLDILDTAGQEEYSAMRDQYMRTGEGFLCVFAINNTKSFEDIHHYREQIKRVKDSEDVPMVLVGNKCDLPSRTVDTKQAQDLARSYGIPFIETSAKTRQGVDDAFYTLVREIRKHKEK
assay.notes: biochemical
pIC50: −log10 of the molar value.
reported.metric: pIC50

Lab note: measured pIC50 of CCc1c(F)ccc2cc(O)cc(-c3ncc4c(NCC5CCNC5=O)nc(OC[C@@]56CCCN5C[C@H](F)C6)nc4c3F)c12 (stereo partly drawn) [Example 368] was 8.40

P = Fc1c(-c2cccc3cccc(F)c23)ncc2c(Nc3ccc4cn[nH]c4c3)nc(OCC34CCCN3CCC4)nc12 [Example 218]
Q = CCc1cccc2cccc(-c3ncc4c(N5CCCC6(C5)NC(=O)NC6=O)nc(OCC56CCCN5CCC6)nc4c3F)c12 (stereo not drawn) [Example 293]
R = CCc1c(F)ccc2cc(O)cc(-c3ncc4c(N5CCCC6(C5)CS(=O)(=O)C6)nc(OC[C@@]56CCCN5C[C@H](F)C6)nc4c3F)c12 [Example 481]
S = Cc1cccc2cccc(-c3ncc4c(N5CCCC(c6nc[nH]n6)C5)nc(OCC56CCCN5CCC6)nc4c3F)c12 (stereo not drawn) [Example 455]
q: Rank the items in ascending order with respect to pIC50. Give me the labels in the order the question wants.
a: P, S, Q, R
(P: 4.18, S: 5.20, Q: 8.00, R: 8.40)
